# ASSAY_PROCEDURE: Cellular uptake was calculated as the ratio of intracellular and extracellular concentration in V79 hamster cells.
# Format: functional, Cricetulus griseus
Task for the reader: assign each of the following molecules its reported Ratio (Ci/Ce).
Numbers only.

# per-item lookup of Ratio (Ci/Ce); items listed below
1. COCC(O)Cn1ccnc1[N+](=O)[O-] (centres undefined)
2. Cl.Cn1cc(NC(=O)c2cc(NC(=O)Cn3ccnc3[N+](=O)[O-])cn2C)cc1C(=O)NCCC(=N)N
3. Cl.Cn1cc(NC(=O)c2cc(NC(=O)c3ccc([N+](=O)[O-])o3)cn2C)cc1C(=O)NCCC(=N)N
4. O=C(Cn1ccnc1[N+](=O)[O-])NCCO

Resp:
[0.7, 3.6, 9.4, 0.4]

###

# Test system: Nucleic Acid
# ASSAY_PROCEDURE: Concentration required for 50% decrease in fluorescence of ethidium bromide bound to calf thymus DNA. at 600 nm
# Type: nucleic-acid assay
# CONDITION: Bos taurus
Threshold check on C50: strictly below 20 µM is Y; on or above 20 µM is N.

Some solved cases for reference:
compound=Cl.Cn1cc(NC(=O)c2ccc([N+](=O)[O-])o2)cc1C(=O)NCCC(=N)N class_label=N
compound=Cl.Cn1cc(NC(=O)Cn2ccnc2[N+](=O)[O-])cc1C(=O)NCCC(=N)N class_label=Y
compound="NC(=O)N/N=C/c1ccc([N+](=O)[O-])o1 [NITROFURAZONE]" class_label=N

Req: Threshold test, C50 < 20 µM: Cc1ncc([N+](=O)[O-])n1CCO [METRONIDAZOLE]
Resp: N

###

# System: Nucleic Acid
# ASSAY_PROCEDURE: Concentration required for 50% decrease in fluorescence of ethidium bromide bound to calf thymus DNA. at 600 nm
# Type: nucleic-acid assay
# CONDITION: Bos taurus
Threshold check on C50: strictly below 5 µM is met; on or above 5 µM is not met.

compound=Cl.Cn1cc(NC(=O)c2cc(NC(=O)Cn3ccnc3[N+](=O)[O-])cn2C)cc1C(=O)NCCC(=N)N target_or_system="Nucleic Acid" class_label="not met"

Req: Threshold test, C50 < 5 µM: COCC(O)Cn1ccnc1[N+](=O)[O-] (stereo unspecified)
Resp: not met

Req: And what about the compound Cn1cc(NC(=O)c2cc(NC(=O)c3cc(NC=O)cn3C)cn2C)cc1C(=O)NCCC(=N)N ?
Resp: met

Req: And what about the compound O=C(Cn1ccnc1[N+](=O)[O-])NCCO ?
Resp: not met

Req: And what about the compound Cl.Cn1cc(NC(=O)c2cc(NC(=O)c3ccc([N+](=O)[O-])o3)cn2C)cc1C(=O)NCCC(=N)N ?
Resp: met

Req: And what about the compound Cn1cc(NC(=O)c2cc(NC(=O)CNC(=N)N)cn2C)cc1C(=O)NCCC(=N)N ?
Resp: met
